PROCEDURE_TEXT: qHTS Assay for Lipid Storage Modulators (AID 1519); further: on the % scale 0 is the no-effect control and ±100 the full control effect
MEASUREMENT_CONDITIONS: Drosophila S3 cells, BODIPY lipid droplet/cell ratio, laser cytometry; at 57.5 µM (top of the series); cells loaded with oleic acid
Inconclusive results are not listed. Activity calls are given as the source filed them. The call rests on the fitted dose curve.
Please provide measured activity change, negative = inhibition for the entries that follow.

Example compounds with recorded activity change, negative = inhibition:
Return activity change, negative = inhibition for the following compound: COc1ccccc1CNc1ncncc1-c1cccnc1
3.76% (inactive)

Recall and state the measured activity change, negative = inhibition for CNc1nc(-c2ccccc2CN(C)C)nc2ccccc12 .
1.92% (inactive)

Could you please provide reported activity change, negative = inhibition for CC(=O)N1CCC[C@@]2(CCN(Cc3ccccc3)C2)C1 ? Thanks!
6.41% (inactive)

Please give activity change, negative = inhibition, item by item, for the list that follows.
1. COc1ccc(-c2nc3cnc(N4CCNCC4)nc3n(CCc3ccccc3)c2=O)cc1
2. CN(C)c1ncc2ncc(=O)n(Cc3ccc(F)cc3)c2n1
3. c1csc(CNc2ncnc3ccc(-c4ccoc4)cc23)c1

1. -10.5% (inactive)
2. 2.54% (inactive)
3. -0.111% (inactive)

---

PROCEDURE_TEXT: G06 Cancer Cell Toxicity qHTS against the NCATS CANVASS Library (AID 1347368); further: nearly all actives have a fitted effect of over 60% in size
MEASUREMENT_CONDITIONS: G06 dog glioma cells, viability ATP luminescence, 72 h; series mostly up to 46.1 µM
Records with an inconclusive call do not appear. Activity calls are given as the source filed them. The call rests on the fitted dose curve; in most records, active means well fitted cell-killing curve with a large enough effect; inconclusive means small, poorly fitted or top-dose-only effect; inactive means flat fitted curve, though single readings scatter.
Hi! Could you answer with just one of these? class 1 for active, class 0 for inactive

Sample answers from the record:
Assay result, entry C/C=C(/C)c1c(Cl)c(OC)c(C)c2c1Oc1c(Cl)c(O)c(Cl)c(C)c1C(=O)O2 — outcome?
class 0

Check the results log: what was the call for CC1=C2CC[C@]3(C)[C@H](CC=C4[C@@H]5CC(C)(C)CC[C@@H]5C(=O)[C@H](O)[C@]43C)[C@@]2(C)C=C(O)C1=O ?
class 0

Could you kindly confirm the outcome this assay logged for CN1CCc2cc3c(c4c2C1(C)C(=O)c1cc(O)ccc1-4)OCO3 (stereo not drawn) ?
class 1

Could you check what this test reported for C=C1CC[C@@H](Br)C(C)(C)[C@]12CC=C(C)C(=O)C2 ?
class 0

Others:
Hello, I am checking results. What call was entered for CO/C=C/C(=O)c1cc2cnc3c(N)cc(=NC(=O)C(C)C)c([nH]1)c23 ?
class 1

Kindly provide the recorded test outcome for the following molecule: C=C1C[C@H]2O[C@@H]3[C@@H]4[C@H](CC[C@@](C)(O)[C@@H]42)[C@H](C)COC3(C)[C@@H](OC(=O)CCCCCCC)CC1=O (stereo partly drawn)
class 1

Tell me the recorded outcome of this test for C=C1C[C@]23C=CC(=O)[C@@](C)(CCCC(C)C(=O)N[C@@H](CO)C(=O)O)[C@@H]2C[C@@H]1CC3 (stereo partly drawn) .
class 0

Write down the call the test reported for this molecule. Item: COC1C(C)OC(OCC23C[C@@H]4[C@H](C)CC[C@H]4C4(C=O)CC2C=C(C(C)C)C34C(=O)O)[C@@H](O)[C@H]1O (stereo partly drawn)
class 0

---

PROCEDURE_TEXT: qHTS Assay for Lipid Storage Modulators (AID 1519); further: on the % scale 0 is the no-effect control and ±100 the full control effect
MEASUREMENT_CONDITIONS: Drosophila S3 cells, BODIPY lipid droplet/cell ratio, laser cytometry; at 57.5 µM (top of the series); cells loaded with oleic acid
Records with an inconclusive call do not appear.
REPORTED_PROPERTY: activity change, negative = inhibition (%)
Numbers only, in %.

Solved entries:
Tell me measured activity change, negative = inhibition for N#CCCn1c(=O)cnc2cnc(Oc3ccccc3)nc21 please.
5.36

Please indicate activity change, negative = inhibition recorded for COCC(=O)N1CCC[C@@]2(CCN(Cc3ccccc3)C2)C1
4

Hello, please tell me recorded activity change, negative = inhibition for this one: COc1cccc(Cn2c(=O)c(C)nc3cnc(OC)nc32)c1
5.06

Return the recorded activity change, negative = inhibition value; entry: O=C(c1cc(C(F)(F)F)cc(C(F)(F)F)c1)N1CCC[C@@]2(CCN(Cc3ccncc3)C2)C1
7.2

Return activity change, negative = inhibition for the following molecule: COc1c2c(nc3ccccc13)OC(C(C)(O)CO)C2 (stereo not drawn)
1.22

Fill in activity change, negative = inhibition for each of the 7 molecules listed.
1. COc1ccc2[nH]cc(CCNc3ncnc4ccc(-c5cccnc5)cc34)c2c1
2. c1cncc(CNc2cc(-c3ccc4c(c3)OCO4)ncn2)c1
3. Cn1c(=O)c(-c2ccc(Cl)cc2)nc2cnc(N3CCOCC3)nc21
4. O=c1c(-c2ccc(Cl)cc2)nc2cnc(N3CCOCC3)nc2n1-c1ccccc1
5. COc1ccccc1CNc1ccnc(-c2ccc3c(c2)OCO3)n1
6. COc1cccc(Nc2ncc3nc(C)c(=O)n(C)c3n2)c1
7. COCC(=O)N1CCC2(CCCN(C(=O)Nc3ccc(OC)cc3)C2)CC1

1. -3.03
2. 11.7
3. 6.96
4. -3
5. 9.28
6. -0.403
7. 5.43

Provide reported activity change, negative = inhibition for each item, in the same order as listed.
1. O=C(c1cccc(F)c1)N1CCC[C@@]2(CCN(Cc3nccs3)C2)C1
2. COc1ccc(-n2c(=O)c(C)nc3cnc(Oc4ccccc4)nc32)cc1
3. Cc1nc2cnc(N3CCNCC3)nc2n(Cc2ccc(F)cc2)c1=O
4. c1ncc(-c2ccoc2)c(NC2CC2)n1
5. COCCNc1ccnc(-c2ccccc2CN(C)C)n1
6. COc1ncc2nc(-c3ccc(F)cc3)c(=O)n(C3CC3)c2n1
7. Cc1ccccc1-c1cc(Nc2ccccc2)ncn1
8. COc1ccc(Oc2ncc3nc(-c4ccc(OC)cc4)c(=O)n(Cc4cccs4)c3n2)cc1

[3.24, 1.98, 2.97, 3.62, 1.95, 4.43, 4.64, 6.95]

Items follow; give activity change, negative = inhibition for each.
1. COc1cccc(-c2nccc(NCc3cccc(C)c3)n2)c1
2. CC(=O)N1CCC[C@@]2(CCN(Cc3cc(C(F)(F)F)cc(C(F)(F)F)c3)C2)C1
3. Cc1noc(C)c1-c1cc(N(C)Cc2ccco2)ncn1

[7.01, 5.56, 2.86]
